- systemTested: KDR endogenously expressed on human umbilical vein endothelial cells (HUVEC) (human, UniProt P35968 20-1356); note: test concentration or dose not given here
- Sequence (P35968 20-1356): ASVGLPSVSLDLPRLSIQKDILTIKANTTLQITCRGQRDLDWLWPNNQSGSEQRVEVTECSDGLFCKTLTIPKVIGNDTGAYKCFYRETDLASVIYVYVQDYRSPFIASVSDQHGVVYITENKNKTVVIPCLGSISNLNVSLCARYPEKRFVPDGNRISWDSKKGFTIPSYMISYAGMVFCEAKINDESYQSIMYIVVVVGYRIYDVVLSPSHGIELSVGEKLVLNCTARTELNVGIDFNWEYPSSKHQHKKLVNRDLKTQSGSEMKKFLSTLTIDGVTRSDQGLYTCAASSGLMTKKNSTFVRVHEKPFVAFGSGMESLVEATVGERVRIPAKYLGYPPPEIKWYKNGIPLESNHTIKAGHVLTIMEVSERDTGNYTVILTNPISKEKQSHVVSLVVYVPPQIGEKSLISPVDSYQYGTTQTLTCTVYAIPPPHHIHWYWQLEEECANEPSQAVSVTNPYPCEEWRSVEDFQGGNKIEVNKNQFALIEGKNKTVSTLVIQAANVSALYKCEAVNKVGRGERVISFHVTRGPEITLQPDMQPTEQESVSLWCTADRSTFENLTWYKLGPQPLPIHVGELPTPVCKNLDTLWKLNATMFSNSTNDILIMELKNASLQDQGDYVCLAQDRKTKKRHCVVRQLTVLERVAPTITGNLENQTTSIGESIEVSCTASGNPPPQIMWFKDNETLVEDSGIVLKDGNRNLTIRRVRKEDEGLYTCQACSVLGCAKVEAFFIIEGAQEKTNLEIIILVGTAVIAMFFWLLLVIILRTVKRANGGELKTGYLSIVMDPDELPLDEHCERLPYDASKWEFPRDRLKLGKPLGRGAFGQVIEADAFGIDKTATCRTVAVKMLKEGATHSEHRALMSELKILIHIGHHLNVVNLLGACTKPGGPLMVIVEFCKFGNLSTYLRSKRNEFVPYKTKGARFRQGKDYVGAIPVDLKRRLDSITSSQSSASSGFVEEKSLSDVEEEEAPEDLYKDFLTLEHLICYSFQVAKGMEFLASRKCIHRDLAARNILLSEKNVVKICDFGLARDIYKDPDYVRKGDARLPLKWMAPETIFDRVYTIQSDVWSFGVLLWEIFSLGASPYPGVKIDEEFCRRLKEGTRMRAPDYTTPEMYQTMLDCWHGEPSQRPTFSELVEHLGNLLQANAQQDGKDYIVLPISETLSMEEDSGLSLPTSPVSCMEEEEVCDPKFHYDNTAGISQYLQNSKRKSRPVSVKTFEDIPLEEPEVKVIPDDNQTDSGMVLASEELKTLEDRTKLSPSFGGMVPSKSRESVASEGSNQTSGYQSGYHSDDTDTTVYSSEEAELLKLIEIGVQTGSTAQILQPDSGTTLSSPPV
- experiment: cell-based or functional assay
Please go through the items and note down their VEGF-E-mediated Survival % Inhibition (n = 2).
# value in %; strip the unit string

Lookup: Find the recorded VEGF-E-mediated Survival % Inhibition (n = 2) belonging to 30F6 (antibody, V domains shown, Fully human mAb from XenoMouse hybridoma, tested as hybridoma supernatant) VH: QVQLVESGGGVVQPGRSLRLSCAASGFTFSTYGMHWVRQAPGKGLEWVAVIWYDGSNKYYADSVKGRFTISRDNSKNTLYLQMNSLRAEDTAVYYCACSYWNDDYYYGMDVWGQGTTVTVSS VL: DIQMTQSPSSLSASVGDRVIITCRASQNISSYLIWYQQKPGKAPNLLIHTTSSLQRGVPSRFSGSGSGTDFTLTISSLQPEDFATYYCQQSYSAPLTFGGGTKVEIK and report it.
Found: 43

Lookup: Find the recorded VEGF-E-mediated Survival % Inhibition (n = 2) belonging to 33B1 (antibody, V domains shown, Fully human mAb from XenoMouse hybridoma, tested as hybridoma supernatant) VH: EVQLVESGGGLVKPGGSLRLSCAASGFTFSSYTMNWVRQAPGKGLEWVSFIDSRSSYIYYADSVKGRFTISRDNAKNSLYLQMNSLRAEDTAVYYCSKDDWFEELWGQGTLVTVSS VL: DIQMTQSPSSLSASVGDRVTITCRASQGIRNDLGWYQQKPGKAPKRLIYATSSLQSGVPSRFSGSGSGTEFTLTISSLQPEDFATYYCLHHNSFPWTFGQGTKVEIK and report it.
Found: 68

Lookup: Find the recorded VEGF-E-mediated Survival % Inhibition (n = 2) belonging to 1G6 (antibody, V domains shown, Fully human mAb from XenoMouse hybridoma, tested as hybridoma supernatant) VH: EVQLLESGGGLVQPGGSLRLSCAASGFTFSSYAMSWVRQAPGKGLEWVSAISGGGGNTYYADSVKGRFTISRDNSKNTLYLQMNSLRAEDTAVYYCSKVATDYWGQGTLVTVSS VL: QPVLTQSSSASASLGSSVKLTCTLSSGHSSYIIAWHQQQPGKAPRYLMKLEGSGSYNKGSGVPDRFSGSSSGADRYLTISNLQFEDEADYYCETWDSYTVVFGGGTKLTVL and report it.
Found: 6
